Biological target: T1, hFc tagged monkey LAG-3 protein (cLAG-3-hFc protein) (monkey; human)
T1 construct: Made in HEK293 cells; also called monkey LAG-3 extracellular domain protein; not shown: human IgG Fc fragment (hFc) of the pCpC vector
T1 chain: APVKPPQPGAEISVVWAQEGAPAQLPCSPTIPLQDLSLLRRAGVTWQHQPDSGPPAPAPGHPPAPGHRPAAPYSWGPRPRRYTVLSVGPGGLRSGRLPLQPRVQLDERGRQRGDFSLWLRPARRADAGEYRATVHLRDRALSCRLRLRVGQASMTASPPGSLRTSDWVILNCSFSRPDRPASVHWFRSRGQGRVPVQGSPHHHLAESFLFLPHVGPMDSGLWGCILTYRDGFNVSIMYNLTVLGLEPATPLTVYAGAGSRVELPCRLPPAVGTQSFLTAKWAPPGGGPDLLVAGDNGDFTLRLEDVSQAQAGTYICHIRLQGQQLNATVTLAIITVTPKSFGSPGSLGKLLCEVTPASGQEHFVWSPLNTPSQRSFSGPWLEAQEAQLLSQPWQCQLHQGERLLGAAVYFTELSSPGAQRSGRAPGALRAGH
Test: ELISA, cLAG-3-hFc coated; 0.6667 nM
Method: The plate was sealed with plastic film and incubated overnight at 4° C. The plate was washed 2 times with the plate washing solution (PBS+0.01% Tween20) on the next day, and added with the blocking solution (PBS+0.01% Tween20+1% BSA) and blocked at room temperature for 1-2 hours. […]
measurementKind: OD450 (OD450)

| binder | testValue |
| --- | --- |
| 556F6B8 (LAG-3 mouse-human chimeric antibody) (antibody, V domains shown, also called 556F8B8) VH: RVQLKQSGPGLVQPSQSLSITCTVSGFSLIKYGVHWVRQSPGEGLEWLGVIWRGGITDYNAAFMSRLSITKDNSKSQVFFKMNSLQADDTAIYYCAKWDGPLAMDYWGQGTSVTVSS VL: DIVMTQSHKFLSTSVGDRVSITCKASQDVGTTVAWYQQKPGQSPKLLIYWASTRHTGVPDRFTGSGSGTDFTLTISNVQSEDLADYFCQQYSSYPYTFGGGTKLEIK | 3.7 |
